Cited source for all entries: patent US6716987B1

Answer each item with its documented melting point.

Q: Endpoint output: melting point of COc1ccc(-c2ccc(C(=O)O)cc2)c2c1OC(C)(C)O2 . Value?
Result: 237 to 239 °C

Q: COc1ccc(CCc2ccncc2)c2c1OCCCO2.Cl ?
Result: 185 to 187 °C

Q: COc1ccc(/C=C/c2ccncc2)c2c1OC(C)(C)C2 ?
Result: 145 to 149 °C

Q: COc1ccc(/C=C/c2c(Cl)cncc2Cl)c2cc(-c3ccccn3)oc12 ?
Result: 157 to 158 °C

Q: COc1ccc(C(=O)Nc2c(Cl)cncc2Cl)c2c1OC(C)(C)C=C2 ?
Result: 174 to 178 °C

Q: COc1ccc(C(=O)Cc2ccncc2)c2c1OCC2C (racemic) ?
Result: 111 to 117 °C

Q: COc1ccc(C(=O)Nc2c(Cl)cncc2Cl)c2c1OCC2CC(=O)NCc1ccccc1 (racemic) ?
Result: 284 to 286 °C

Q: CCOC(=O)CC1COc2c(OC)ccc(C(=O)NC3CCCCC3)c21 (racemic) ?
Result: 197 to 199 °C

Q: COc1ccc(C(=O)Cc2c(Cl)cncc2Cl)c2c1OCCCCO2 ?
Result: 142 to 143 °C

Q: CCOC(=O)c1cccc(NC(=O)c2ccc(OC)c3c2OCCO3)c1 ?
Result: 174 to 175 °C

Q: COc1ccc(C(=O)Nc2ccncc2)c2c1OC(C)(C)O2 ?
Result: 180 to 181 °C

Q: CCN1CCN(C(=O)c2cc3c(C(=O)Cc4c(Cl)cncc4Cl)ccc(OC)c3o2)CC1.O=C(O)/C=C/C(=O)O ?
Result: 196 to 197 °C

Q: CCC1(CC)Cc2c(C(=O)Cc3c(Cl)cncc3Cl)ccc(OC)c2O1 ?
Result: 164 to 166 °C

Q: COc1ccc(C(=O)Cc2c(Cl)cncc2Cl)c2c1OC1(CCCC1)C2 ?
Result: 159 to 162 °C

Q: COc1ccc(C(=O)Nc2c(Cl)cncc2Cl)c2c1OCC2CC(=O)OCc1ccccc1 (racemic) ?
Result: 198 to 205 °C

Q: COc1ccc(C(=O)Nc2c(Cl)cncc2Cl)c2c1OCC2C(C)C (racemic) ?
Result: 239 to 241 °C

Q: CCOC(=O)CC1COc2c(OC)ccc(C(=O)Nc3c(Cl)cncc3Cl)c21 (racemic) ?
Result: 186 to 188 °C

Q: CCOC(=O)Cc1coc2c(OC)ccc(C(=O)Nc3c(Cl)cncc3Cl)c12 ?
Result: 216 to 218 °C

---

Answer each item with its documented Number of vomiting animals/Number of experimental animals.
- Test system: Sunkus murinus
- assay details: Effect on vomiting induction in male Sunkus murinus
- Format: in vivo
- assay setup: dose 10 mg/kg i.p., observed for 1 hour after administration

Q: Endpoint output: Number of vomiting animals/Number of experimental animals of COc1ccc(-c2ccc(C(=O)O)cc2)c2c1OC(C)(C)O2 [Compound 204] . Value?
Result: 2/5

Q: COc1ccc(C(=O)Nc2c(Cl)cncc2Cl)c2cc(C(=O)c3ccccc3)oc12 [RB, reference compound] ?
Result: 0/5

Q: COc1ccc(C(=O)Nc2c(Cl)cncc2Cl)c2cc(C(=O)CCCN3CCN(C)CC3)oc12 [Compound 214] ?
Result: 3/5

Q: COc1ccc(C(=O)Nc2c(Cl)cncc2Cl)c2cc(C(=O)CCCN3CCOCC3)oc12 [Compound 213] ?
Result: 0/5

Q: COc1ccc(C(=O)Cc2ccncc2)c2c1OC1(CCCC1)C2.Cl [RA, reference compound] ?
Result: 5/5

Q: COc1ccc(C(=O)Nc2c(Cl)cncc2Cl)c2cc(C(=O)N3CCN(CCO)CC3)oc12 [Compound 202] ?
Result: 0/5
